Origin of the recorded values: the supplement of paper PMC10646978

Tested on: RAW-Dual (murine macrophage reporter line)
Test: IRF reporter (Lucia luciferase) activity fold change vs agonist alone; higher = enhanced IRF activity
Conditions: modulator concentration 10 µM; agonist: 3'3'-cGAMP 10 ug/mL
Given measured IRF reporter, output Criterion met if it is greater than or equal to 1 and Criterion not met if not.

>>> category("Cc1ccc(-c2cc(-c3ccccc3)nc(NN=Cc3ccc(Br)cc3)n2)cc1")
"Criterion met"
>>> category("Cc1cccc(-c2nn3c(c2-c2ccnc4ccc(C(N)=O)cc24)CCC3)n1")
"Criterion not met"

query: Quick check, IRF reporter >= 1? N#Cc1ccnc(N2C(=O)CC[C@H]2C(=O)N(c2cncc(F)c2)[C@H](C(=O)NC2CC(F)(F)C2)c2ccccc2Cl)c1
result: Criterion met

====

Would you mind telling me the reported NF-kB reporter of each entry?
System: RAW-Dual (murine macrophage reporter line)
Test: NF-kB reporter (SEAP) activity fold change vs agonist alone; higher = enhanced NF-kB activity
Settings: modulator concentration 10 µM; agonist: LPS 0.1 ug/mL
Numbers only.

>>> value_reported("COc1ccc(C=CC(=O)Nc2ccc([N+](=O)[O-])cc2)cc1Br")
0.991
>>> value_reported("Cc1ccc(=O)n(-c2ccccc2)c1")
0.981
>>> value_reported("NC(=O)CC[C@@H](N)C(=O)O")
1.05

Batch request: NF-kB reporter for each of the following compounds.
1. COc1ccc(-c2[nH]c3ccccc3c2SCCNC(=O)c2ccccc2)cc1
2. CC(=O)NC(NC(C)=O)c1cccc([N+](=O)[O-])c1
3. O=c1oc2ccccc2c(O)c1Cc1c(O)c2ccccc2oc1=O

result:
1.19
1
0.972

====

Tested on: RAW-Dual (murine macrophage reporter line)
Assay: IRF reporter (Lucia luciferase) activity fold change vs agonist alone; higher = enhanced IRF activity
Conditions: modulator concentration 10 µM; agonist: MPLA […]
Measure name: IRF reporter
Give bare numbers.

Completed entries (count: 5):
>>> value_reported("O=C(C=Cc1cccc([N+](=O)[O-])c1)NCCc1ccccc1")
1.32
>>> value_reported("Br.O=S(=O)(c1ccc(-c2csc(Nc3cccc4ccccc34)n2)cc1)N1CCOCC1")
1.12
>>> value_reported("COc1ccc(C(=O)C=Cc2cc(OC)c(OC)cc2OC)c(OC)c1")
1.06
>>> value_reported("COc1ccc(C(C)(C#N)CC#N)cc1 (stereo unspecified)")
1.47
>>> value_reported("Nc1nc(N)nc(-c2cc(Cl)ccc2Cl)n1")
1.08

The measured IRF reporter associated with C=CCNC(N)=S reads 0.986

====

Test system: RAW-Dual (murine macrophage reporter line)
Assay: NF-kB reporter (SEAP) activity fold change vs agonist alone; higher = enhanced NF-kB activity
Settings: modulator concentration 10 µM; agonist: LPS 0.1 ug/mL
Measure name: NF-kB reporter
Give bare numbers.

Completed entries (count: 5):
>>> value_reported("Cc1nc2c(ccc3ccccc32)c(O)c1CN1CCCC1")
0.968
>>> value_reported("CC(C)c1ccc(NC(=O)C2CCCCC2C(=O)O)cc1 (centres undefined)")
1.06
>>> value_reported("CCOC(=O)C1=C(N)OC(C)=C(C(=O)OC)C1c1cccnc1 (centres undefined)")
1.11
>>> value_reported("Nc1ncnc2c1ncn2[C@@H]1O[C@H](CO)[C@@H](O)[C@H]1O")
1.13
>>> value_reported("CN1C[C@@H]2c3ccccc3Oc3ccc(Cl)cc3[C@H]2C1.O=C(O)/C=C\\C(=O)O")
0.821

Batch request: NF-kB reporter for each of the following compounds.
1. O=c1[nH]c2ccccc2n1CCN1CCN(c2cccc(C(F)(F)F)c2)CC1
2. COc1cccc2c1C(=O)c1c(O)c3c(c(O)c1C2=O)C[C@@](O)(C(=O)CO)C[C@@H]3O[C@@H]1C[C@H](N)[C@@H](O)[C@H](C)O1

result:
1: 0.403; 2: 0.0896

Batch request: NF-kB reporter for each of the following compounds.
1. C#CCN(C)Cc1ccccc1.Cl
2. CN1CCC2(CC1)NC(=O)N(CC(=O)N1CCc3ccccc31)C2=O

result:
[0.895, 1.14]

Batch request: NF-kB reporter for each of the following compounds.
1. CN1C(=O)C(=C2SC(=S)N(C(CCC(=O)O)C(=O)O)C2=O)c2ccccc21 (centres undefined)
2. CC(=O)N1CCN=C1SCc1cccc(C(F)(F)F)c1
3. Cc1cc2ncn(CC3CCN(C(=O)COc4ccc(F)cc4)CC3)c2cc1C.O=C(O)C(=O)O
4. Cc1ccc(-c2ccc3nnc(CCC(=O)NCc4ccc(C(F)(F)F)cc4)n3n2)cc1C
5. COc1cc2nc(N(C)CCCNC(=O)C3CCCO3)nc(N)c2cc1OC (centres undefined)
6. Cc1cc(-c2csc(NCc3ccccc3)n2)c(C)o1.Cl
7. CSc1ccc(C2Nc3ccccc3-c3nnc(SCc4ccc(C)cc4)nc3O2)cc1 (centres undefined)
8. COC1CCN(c2ccc(C(=O)N3CC(n4cc(COc5ccccc5)nn4)C3)cc2)C1 (centres undefined)

result:
1: 1.02; 2: 0.698; 3: 1.06; 4: 1.04; 5: 0.957; 6: 0.892; 7: 0.952; 8: 1.13

Batch request: NF-kB reporter for each of the following compounds.
1. CC(=NOCON=C(C)c1ccc(F)cc1F)c1ccc(F)cc1F
2. Cc1cccc(Oc2ccc(NC(=O)c3ccco3)cc2)c1
3. O=S(=O)(C=Cc1ccccc1)NCc1ccccc1
4. Cc1nnc(NC(=O)CSc2nc3ccccc3[nH]2)s1
5. O=C(CCCCCN1C(=O)c2cccc3cccc(c23)C1=O)NO
6. Brc1ccc2[nH]cc(-c3nnc4ccc5ccccc5n34)c2c1
7. Cc1cc(OCC(=O)NN=Cc2ccc(O)c([N+](=O)[O-])c2)ccc1Cl
8. O=C(O)c1cc(NC(=O)c2ccc(Cl)c([N+](=O)[O-])c2)cc(C(=O)O)c1

result:
0.907
0.981
1.03
1.01
1.43
0.877
1.04
0.973

====

System: RAW-Dual (murine macrophage reporter line)
Experiment: NF-kB reporter (SEAP) activity fold change vs agonist alone; higher = enhanced NF-kB activity
Conditions: modulator concentration 10 µM; agonist: CpG ODN 1826 0.5 ug/mL
Measure name: NF-kB reporter

Completed entries (count: 10):
>>> value_reported("CCOC(=O)N[C@@H]1CC[C@@H]2[C@@H](C1)C[C@H]1C(=O)O[C@H](C)[C@H]1[C@H]2/C=C/c1ccc(-c2cccc(F)c2)cn1")
0.376
>>> value_reported("COc1cc2nc(N3CCN(C(=O)C4COc5ccccc5O4)CC3)nc(N)c2cc1OC.CS(=O)(=O)O (stereo not drawn)")
0.103
>>> value_reported("CCOC(=O)c1ncn2c1CN(C)C(=O)c1cc(F)ccc1-2")
1.26
>>> value_reported("CN1CC(c2ccccc2)OC1=O (stereo not drawn)")
1.06
>>> value_reported("CCOc1ccc(Nc2nc(Nc3ccc(OCC)cc3)nc(N3CCOCC3)n2)cc1")
0.35
>>> value_reported("CCN(CC)c1ccc2cc(-c3nnc(NCc4ccc(F)cc4)s3)c(=O)oc2c1")
1.08
>>> value_reported("CN(C)C/C=C/C(=O)Nc1cc2c(Nc3ccc(F)c(Cl)c3)ncnc2cc1O[C@H]1CCOC1.O=C(O)/C=C\\C(=O)O.O=C(O)/C=C\\C(=O)O")
0.365
>>> value_reported("Cc1ccc(S(=O)(=O)c2ccc(O)c(O)c2)cc1")
0.932
>>> value_reported("O=[N+]([O-])c1ccc(CSc2nc3ccccc3[nH]2)cc1")
0.971
>>> value_reported("NC(C(=O)O)c1ccccc1F (stereo not drawn)")
0.928

Batch request: NF-kB reporter for each of the following compounds.
1. CCC(=O)CC(O)(c1ccccc1)C(F)(F)F (stereo not drawn)
2. c1ccc2sc(SCCCCSc3nc4ccccc4s3)nc2c1

result:
[1.04, 1.11]

Batch request: NF-kB reporter for each of the following compounds.
1. COc1ccc2cc(Br)ccc2c1CC(=O)O
2. Br.O=S(=O)(c1ccc(-c2csc(Nc3ccc(Br)cc3)n2)cc1)N1CCCCC1
3. O=C(CCC1CCCC1)Nc1cccc(F)c1
4. O=C(NCCN1CCOCC1)c1ccccc1Br
5. C#CCCCCCCCCCCCC(=O)CC(O)COC(C)=O (stereo not drawn)
6. O=[N+]([O-])c1ccc(C=Nc2sc3c(c2-c2nc4ccccc4s2)CCCC3)cc1
7. CN(C)CC/C=C1/c2ccccc2COc2ccc(CC(=O)O)cc21.Cl
8. Oc1c(Cl)cc(Cl)cc1Sc1cc(Cl)cc(Cl)c1O

result:
1. 0.759
2. 0.859
3. 0.986
4. 0.967
5. 0.822
6. 0.94
7. 1.35
8. 1.18

Batch request: NF-kB reporter for each of the following compounds.
1. O=C(O)CSc1nnc(Br)n1-c1ccc(C2CC2)c2ccccc12
2. Cl.NC12CC3CC(CC(C3)C1)C2
3. CCCC(=O)OCOC(=O)C1=C(C)NC(C)=C(C(=O)OC)C1c1cccc(Cl)c1Cl (stereo not drawn)

result:
1. 1.08
2. 1.44
3. 0.752
